# assay info: in vivo
# particulars: hairless, guinea pig, iv, 11 ug
quantity name: AUC (ng·h/mL)
Field format: number, assumed ng·h/mL, no unit text.

Task: Quick one: AUC of NC(=O)CC[C@@H]1NC(=O)[C@H](Cc2ccccc2)NC(=O)[C@H](Cc2ccc(O)cc2)NC(=O)CCSSC[C@@H](C(=O)N2CCC[C@H]2C(=O)N[C@H](CCCN=C(N)N)C(=O)NCC(N)=O)NC(=O)[C@H](CC(N)=O)NC1=O ?
Output: 50.5

---

# assay info: clinical
# particulars: both, human, in vivo, iv, mean half-life
quantity name: half-life

Task: Quick one: half-life of NC(=O)CC[C@@H]1NC(=O)[C@H](Cc2ccccc2)NC(=O)[C@H](Cc2ccc(O)cc2)NC(=O)CCSSC[C@@H](C(=O)N2CCC[C@H]2C(=O)N[C@H](CCCN=C(N)N)C(=O)NCC(N)=O)NC(=O)[C@H](CC(N)=O)NC1=O [desmopressin] ?
Output: 3.1 to 3.8 h

---

# assay info: in vivo
# particulars: hairless, guinea pig, 82 ug
quantity name: Cmax (ng/mL)
Field format: number, assumed ng/mL, no unit text.

Task: Quick one: Cmax of NC(=O)CC[C@@H]1NC(=O)[C@H](Cc2ccccc2)NC(=O)[C@H](Cc2ccc(O)cc2)NC(=O)CCSSC[C@@H](C(=O)N2CCC[C@H]2C(=O)N[C@H](CCCN=C(N)N)C(=O)NCC(N)=O)NC(=O)[C@H](CC(N)=O)NC1=O ?
Output: 49

---

# assay info: in vivo
# particulars: hairless, guinea pig, iv, 20 ug
quantity name: dose excreted (%)
Field format: number, assumed %, no unit text.

Task: Quick one: dose excreted of NC(=O)CC[C@@H]1NC(=O)[C@H](Cc2ccccc2)NC(=O)[C@H](Cc2ccc(O)cc2)NC(=O)CCSSC[C@@H](C(=O)N2CCC[C@H]2C(=O)N[C@H](CCCN=C(N)N)C(=O)NCC(N)=O)NC(=O)[C@H](CC(N)=O)NC1=O ?
Output: 71

---

# assay info: clinical
# particulars: both, human, in vivo, iv, Tmax
# Experimental: Methods: This was a 2-part study in healthy human volunteers (18-45 years). […] All treatments were administered 30 minutes after a subcutaneous injection of low-molecular weight heparin to counteract the increase in clotting factors in the healthy volunteer population. […] Topical effects were also examined. Pain upon patch application was scored and compared to subcutaneous saline injection with a 27-gauge needle. […] Bleeding assessment (visual and photographic) were measured 2 min post-system removal. […]
quantity name: Tmax (min)
Field format: number, assumed min, no unit text.

Task: Quick one: Tmax of NC(=O)CC[C@@H]1NC(=O)[C@H](Cc2ccccc2)NC(=O)[C@H](Cc2ccc(O)cc2)NC(=O)CCSSC[C@@H](C(=O)N2CCC[C@H]2C(=O)N[C@H](CCCN=C(N)N)C(=O)NCC(N)=O)NC(=O)[C@H](CC(N)=O)NC1=O [desmopressin] ?
Output: 30

---

# assay info: clinical
# particulars: both, human, in vivo, iv, 15 ug, time of peak concentration
quantity name: Tmax (min)
Field format: number, assumed min, no unit text.

Task: Quick one: Tmax of NC(=O)CC[C@@H]1NC(=O)[C@H](Cc2ccccc2)NC(=O)[C@H](Cc2ccc(O)cc2)NC(=O)CCSSC[C@@H](C(=O)N2CCC[C@H]2C(=O)N[C@H](CCCN=C(N)N)C(=O)NCC(N)=O)NC(=O)[C@H](CC(N)=O)NC1=O ?
Output: 15
